Listing of entries alongside the reported IC50.
molecular target: human 5-LOX (Homo sapiens, UniProt P09917); construct: purchased Cayman 60402; host or cells: insect cells (lysate); test: 5-LOX enzyme activity, fluorescence method (5-HPETE, H2DCFDA); format: biochemical; conditions: read-out: 5-LO (IC50)
Sequence (P09917 whole entry): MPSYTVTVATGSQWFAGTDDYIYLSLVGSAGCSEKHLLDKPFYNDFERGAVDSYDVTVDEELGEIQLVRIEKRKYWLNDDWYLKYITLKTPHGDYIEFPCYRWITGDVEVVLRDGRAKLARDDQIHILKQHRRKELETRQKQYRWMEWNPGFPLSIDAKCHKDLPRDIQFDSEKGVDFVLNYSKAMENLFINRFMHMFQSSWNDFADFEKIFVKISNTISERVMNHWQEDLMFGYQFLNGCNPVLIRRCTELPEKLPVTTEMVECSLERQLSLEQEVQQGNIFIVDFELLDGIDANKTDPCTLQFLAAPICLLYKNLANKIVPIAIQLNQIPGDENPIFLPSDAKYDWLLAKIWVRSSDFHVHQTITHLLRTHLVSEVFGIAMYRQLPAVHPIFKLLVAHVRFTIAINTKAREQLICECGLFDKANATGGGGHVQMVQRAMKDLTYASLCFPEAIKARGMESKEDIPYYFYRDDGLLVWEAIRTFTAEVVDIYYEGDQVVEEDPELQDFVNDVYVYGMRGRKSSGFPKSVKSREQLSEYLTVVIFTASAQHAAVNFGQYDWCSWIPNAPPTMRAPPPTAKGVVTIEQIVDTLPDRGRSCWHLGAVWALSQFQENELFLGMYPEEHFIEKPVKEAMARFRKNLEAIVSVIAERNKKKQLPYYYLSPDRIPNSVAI
PROPERTY LABEL: IC50

smiles_code=c1ccc(Oc2ccc(CNc3nc4cc(NC5COC5)ccc4[nH]3)cc2)cc1 experimental_value="< 1 µM"
smiles_code=CN(C)CCn1c(NCc2ccc(Oc3ccc(Cl)cn3)cc2)nc2ccc(NC3COC3)cc21 experimental_value="< 1 µM"
smiles_code=Nc1ccc2[nH]c(NCCc3ccc(Oc4ccc(Cl)cc4)cc3)nc2c1 experimental_value="< 1 µM"
smiles_code=Cn1c(NCc2ccc(Oc3ccc4cccc(Cl)c4n3)cc2)nc2ccc(N)cc21 experimental_value="< 1 µM"
smiles_code=Cn1nc(Nc2ccc3nc(NCc4ccc(Oc5ncc(C(F)(F)F)cn5)cc4)n(C)c3c2)cc1C(F)(F)F experimental_value="> 10 µM"

----------
List of melting point values.
PROPERTY LABEL: melting point

compound=CN(C)c1nc2ccc(N)cc2n1CCOc1ccc(OC(F)(F)F)cc1 experimental_value="> 133 °C"
compound="CC(Cc1ccc(Cl)cc1Cl)Nc1nc2cc(N)ccc2[nH]1 (centres unmarked)" experimental_value="> 200.9 °C"
compound="c1ccc(Oc2ccc(CNc3nc4cc(NC5CCOC5)ccc4[nH]3)cc2)cc1 (centres unmarked)" experimental_value="> 54.3 °C"
compound=CC(C)(C)Oc1ccc(CNc2nc3ccc(N)cc3[nH]2)cc1 experimental_value="> 59.7 °C"
compound=Cn1c(NCc2ccc(Oc3ccc(F)cn3)cc2)nc2ccc(N)cc21 experimental_value="121.4 to 124.6 °C"
compound=Cn1c(NCc2ccc(Oc3ccc4c(Cl)cccc4n3)cc2)nc2ccc(NC3COC3)cc21 experimental_value="102.3 to 107.3 °C"
compound=CC(C)(C)c1ccc(CNc2nc3ccc(N)cc3[nH]2)cc1 experimental_value="> 130.8 °C"
compound=Nc1ccc2[nH]c(N3CCC(Oc4ccc(F)cc4)CC3)nc2c1 experimental_value="193.3 to 205 °C"
compound=Nc1ccc2c(c1)nc(N)n2CCc1ccc(F)cc1 experimental_value="178.2 to 179.6 °C"
compound=Cn1c(NCc2ccc(Oc3nc4ccc(Cl)cc4n3C)cc2)nc2ccc(NC3COC3)cc21 experimental_value="138.9 to 140.8 °C"
compound=Nc1ccc2[nH]c(NCc3ccc(-c4ccccc4)cc3)nc2c1 experimental_value="> 200 °C"
compound=Nc1ccc2[nH]c(NCc3ccc(N4CCN(c5ccc(OC(F)(F)F)cc5)CC4)cc3)nc2c1 experimental_value="> 220 °C"
compound=Nc1ccc2nc(NC3CCCC3)n(CCOc3ccc(OC(F)(F)F)cc3)c2c1 experimental_value="200.7 to 201.3 °C"
compound=CC(C)(C)c1ccc(Oc2ccc(CNc3nc4cc(N)ccc4[nH]3)cc2)cc1 experimental_value="> 207.2 °C"
compound=CC(C)(Nc1ccc2[nH]c(NCc3ccc(Oc4ccc(Cl)cc4)cc3)nc2c1)C(N)=O experimental_value="> 113.2 °C"
compound=Nc1ccc2[nH]c(NCc3ccc(Oc4ccc(F)c(Cl)c4)cc3)nc2c1 experimental_value="58.4 to 66.6 °C"
compound=CC(C)(Nc1ccc2[nH]c(NCc3ccc(Oc4ccccc4)cc3)nc2c1)C(N)=O experimental_value="> 173 °C"
